system: CD2F1 mice, L1210 leukemia ip, survival T/C; assay: NCI In Vivo Anticancer Drug Screen. Data for tumor model L1210 Leukemia (intraperitoneal) in CD2F1 (CDF1) mice; conditions: endpoint: mean survival time; dose: 200.0 mg/kg/injection; schedule: Q01DX009 (ip); vehicle: saline with Tween-80; higher = longer survival
Inconclusive results and toxic doses are left out.

# molecule, tgt, T/C
data = [
    ("COC(=O)CC1C2CCc3cc(OC)ccc3C2CCC1(C)C(=O)OC (stereo unspecified)", "CD2F1 mice, L1210 leukemia ip, survival T/C", "101 % of control"),
    ("CCOC(CNC(=O)NC1CCCCC1)OCC", "CD2F1 mice, L1210 leukemia ip, survival T/C", "104 % of control"),
    ("O=[N+]([O-])c1ccc(N=C(Cl)c2ccccc2)cc1", "CD2F1 mice, L1210 leukemia ip, survival T/C", "104 % of control"),
    ("COC(=O)C(Cc1ccc(O)cc1)NC(=O)C(C)NC(=O)OCc1ccccc1 (stereo unspecified)", "CD2F1 mice, L1210 leukemia ip, survival T/C", "93 % of control"),
    ("O=C(Nc1ccccc1SC(=O)c1ccccc1)c1ccccc1", "CD2F1 mice, L1210 leukemia ip, survival T/C", "91 % of control"),
    ("C#CCN(CC#C)C(=O)CCCCCCCCC=C", "CD2F1 mice, L1210 leukemia ip, survival T/C", "93 % of control"),
    ("CCOC(=O)C(=CNc1ccc(C)cn1)C(=O)OCC", "CD2F1 mice, L1210 leukemia ip, survival T/C", "98 % of control"),
    ("CCOC(=O)c1ccc(Nc2nnc(-c3c(OC)cc(OC)cc3OC)s2)cc1", "CD2F1 mice, L1210 leukemia ip, survival T/C", "88 % of control"),
    ("O=C(Nc1ccccc1)OCC1CC2CCC1C2 (stereo unspecified)", "CD2F1 mice, L1210 leukemia ip, survival T/C", "93 % of control"),
    ("O=S1(=O)c2ccccc2Oc2ccccc21", "CD2F1 mice, L1210 leukemia ip, survival T/C", "107 % of control"),
    ("O=[N+]([O-])c1ccc(S(=O)(=O)F)c(Cl)c1", "CD2F1 mice, L1210 leukemia ip, survival T/C", "100 % of control"),
    ("O=C(N/N=C/c1ccccc1O)c1ccncc1", "CD2F1 mice, L1210 leukemia ip, survival T/C", "95 % of control"),
    ("CCOC(=O)c1sc(N)c(C(=O)OCC)c1C", "CD2F1 mice, L1210 leukemia ip, survival T/C", "93 % of control"),
    ("COc1cc(C(C)=O)cc(OCc2ccccc2)c1OC", "CD2F1 mice, L1210 leukemia ip, survival T/C", "102 % of control"),
    ("O=C(NC(O)C(Cl)(Cl)Cl)c1ccccc1 (stereo unspecified)", "CD2F1 mice, L1210 leukemia ip, survival T/C", "89 % of control"),
    ("Nc1cccc2nc3ccccc3cc12", "CD2F1 mice, L1210 leukemia ip, survival T/C", "95 % of control"),
]

---

tested on: CD2F1 mice, L1210 leukemia ip, survival T/C; test: NCI In Vivo Anticancer Drug Screen. Data for tumor model L1210 Leukemia (intraperitoneal) in CD2F1 (CDF1) mice; conditions: endpoint: mean survival time; dose: 100.0 mg/kg/injection; schedule: Q01DX001 (ip); vehicle: saline with Tween-80; higher = longer survival
Toxic doses and inconclusive results are not listed.
# Lookup of reported T/C keyed by entry
observed.property: T/C

# compound, value.observed
measured = [
    ("C/C=C/C=C(\\CC)C(=O)OCC", "97 % of control"),
    ("CN1C(CC(O)(c2ccccc2)c2ccccc2)CCCC1CC(O)(c1ccccc1)c1ccccc1 (configuration not stated)", "91 % of control"),
    ("COc1c(Cl)c(=O)oc2cc(C)c(Cl)c(C)c12", "93 % of control"),
    ("Cc1ccc(S(=O)(=O)OC(c2ccccc2)C(F)(F)F)cc1 (configuration not stated)", "100 % of control"),
    ("CCC(C=O)(CC)CCC#N", "103 % of control"),
    ("O=CC(NC(=O)OCc1ccccc1)C(O)C(O)C(O)CO (configuration not stated)", "102 % of control"),
    ("O=C1CCCN1c1ccc([N+](=O)[O-])cc1", "110 % of control"),
    ("O=C(Nc1ccc([N+](=O)[O-])cc1Cl)OCCc1ccccn1", "98 % of control"),
    ("C(=NCC1CCC(CN=Cc2ccco2)CC1)c1ccco1 (configuration not stated)", "107 % of control"),
    ("SCc1nc2ccccc2[nH]1", "96 % of control"),
    ("CC(=O)N(C)c1ccc(S(=O)(=O)Cl)cc1", "100 % of control"),
    ("COC(=O)/C(Br)=C/C(C)=O", "107 % of control"),
    ("CC(=O)OCC(OC(C)=O)C(OC(C)=O)C(OC(C)=O)C(OC(C)=O)OC(C)=O (configuration not stated)", "94 % of control"),
    ("CC(C)(CO)C(O)C(=O)NCCS(=O)(=O)c1ccc(F)cc1 (configuration not stated)", "105 % of control"),
    ("CC(=O)OC(c1ccccc1)C(C)C(O)(C(F)(F)F)C(F)(F)F (configuration not stated)", "98 % of control"),
    ("CCOC(=O)CC(=O)NCCc1ccccc1OC", "102 % of control"),
    ("CCN(CC)CCNc1cc2c3ccccc3ccc2c2ccccc12", "88 % of control"),
]
